Entries and their TGI values follow.
test system: U251 CNS; experiment: NCI tumour cell line growth inhibition, 48 h

Some solved cases for reference:
CSCC[C@H](NC(=O)[C@H](CC(C)C)NC(=O)[C@@H](Cc1ccccc1)NC(=O)CNC(=O)[C@@H](NC(=O)[C@H](C)NC(=O)[C@H](Cc1c[nH]c2ccccc12)NC(=O)[C@H](CCC(N)=O)NC(=O)[C@H](N)CC(N)=O)C(C)C)C(N)=O = > 12.5 µM
Cc1ccc(Nc2[nH]c(=O)[nH]c(=O)c2C)cc1Cl = > 100 µM
Cc1ccc(S(=O)(=O)N2c3ccccc3[C@H]3CCC=C[C@H]32)cc1 = 27.2 µM
COc1cc(OC)c2c(=O)c(OC)c(-c3ccc4c(c3)OCO4)oc2c1OC = > 100 µM

Item: `COc1cc(/C=C2\Oc3cc(OCCCN4CCCC4)ccc3C2=O)cc(OC)c1` | TGI: 7.71 µM

TGI recorded for this molecule, `NNC1=N/C(=C\c2ccco2)C(=O)N1` , is > 100 µM

TGI for `C1COCCOCCOCCOCCOCCO1.[Cl][Sn]([Cl])([c]1ccccc1)[c]1ccccc1` is 6.81 µM

Note to self: TGI recorded for COC1(OC)N=C(N)C2(C#N)C3(C(=O)N(C(C)C)N=C3C)C12C#N (stereo not drawn) was > 100 µM

Sample `CCN(CC)CCOc1ccc(/C=C2\C[C@H]3[C@H]4CC=C5C[C@@H](O)CC[C@]5(C)[C@H]4CC[C@]3(C)[C@H]2O)cc1OC` ; TGI observed: 17.3 µM

// recorded TGI for COc1cc2c(cc1OC)CN1CCCc3cc(OC)c(OC)cc3C1C2 (stereo not drawn) : > 100 µM

Data credit: PubChem BioAssay (NCI)
